Biological target: T1, P7
T1 chain: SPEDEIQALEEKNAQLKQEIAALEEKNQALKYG
Assay: two-hybrid library CC1;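 further: natural log of median RNA to DNA barcode read ratio; higher means stronger binding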
Conditions: mean of both orientations
metric: interaction score
Answers are plain numbers.

Consider the reported interaction score for these binders:
Incoming: Fill in: interaction score of KNSQLKEEIQQLEEENQQLEEKISQLKYG [P6mS] is ___
Outgoing: -2.01

Incoming: interaction score lookup needed for ENSQLEEKISQLKQKNSQLKEEIQQLEYG [P5mS] , thanks.
Outgoing: -2.73

Incoming: Need interaction score of ENARLEEKIRQLKQKNSQLKEEIQQLEYGC [P5SC2] , thanks.
Outgoing: -2.39

Okay, now this binder:
Incoming: May I ask what interaction score has been recorded for EIQQLEEEISQLEQKNSQLKEKNQQLKYG [P3mS] ?
Outgoing: -2.64

Every entry's value here was drawn from paper PMC10397247.
